assay: protein stability index of a GFP-peptide fusion (yeast GPS) (PSI 1-4); higher = more stable; sorted into four equal gates, so the index is relative within each strain; settings: ubr1∆
value_kind: protein stability index

INSERT INTO measurements (sequence_entry, quantitative_readout) VALUES
  ('DVNIVNRRLVYSRILKS [YCG1]', 1.21),
  ('SVIQLCGGINDSIPYPQ [ECM29]', 2.88),
  ('ADTKAPTFTFGSSALAD [YLR335W/NUP2]', 3.11),
  ('LQPFWFRVNNASINTSA [ECM29]', 1.49),
  ('QKKRVVDPFTRKEWFDI [RPS1A]', 3.13),
  ('SKSYTPRKLVLSSGENR [SMC4]', 1.7),
  ('NVSLIKIEGVATPQDAQ [RPL33A]', 2.37),
  ('DLFGDSNKSNSTNESNK [SSN2]', 3.29),
  ('LTSVTNDICSVENYETS [SIR4]', 1.84),
  ('GMTKSNIYNFSPSERIE [BRR2]', 2.96),
  ('LEWLENPSNTPDKDYLL [FAS1]', 3.29),
  ('PYLVANVVEVMDMNEIE [RPT5]', 2.32),
  ('NGQSLSPVRSDSADVPA [YMR153W/NUP53]', 2.91),
  ('RQILFKYPMYMQLEEEL [MED6]', 1.72);

---

assay: protein stability index of a GFP-peptide fusion (yeast GPS) (PSI 1-4); higher = more stable; sorted into four equal gates, so the index is relative within each strain; settings: pdr5∆
Tick TRUE if protein stability index is 3 or greater. Tick FALSE if protein stability index is less than 3.

INSERT INTO results (sequence_entry, label) VALUES
  ('ESELSLLEETQAKLKKN [SMC4]', 'TRUE'),
  ('LFGGRHYLFNTFTFTAH [SWP82]', 'FALSE'),
  ('NIIASPLSAGFNYGKLP [SIN4]', 'FALSE'),
  ('MMLGEHLMSWSKTGIIA [SIN4]', 'FALSE'),
  ('EVRQETQPKAEATQDDD [NUT1]', 'TRUE'),
  ('LSGLSADKPFTRLTAYQ [YML031W/NDC1]', 'TRUE'),
  ('ELQMRSFLKEGDLLNAE [RRP4]', 'TRUE'),
  ('SSNVQQPQQQLGDMENN [RTT102]', 'TRUE'),
  ('ILQILNLMILNTKVPVD [YML103C/NUP188]', 'FALSE'),
  ('TKLKNAVQNESVSSPIE [QCR2]', 'TRUE'),
  ('QIMQLKKICNHPFVFEE [SNF2]', 'FALSE'),
  ('AALRTVKSLVDNMITGV [RPL9A]', 'TRUE'),
  ('KAFEERHQAGKNQWFFS [RPL27A]', 'TRUE');

---

Form field: protein stability index (one value per entry).
test: protein stability index of a GFP-peptide fusion (yeast GPS) (PSI 1-4); higher = more stable; sorted into four equal gates, so the index is relative within each strain; conditions: pdr5∆
value_kind: protein stability index

INSERT INTO measurements (sequence_entry, value_kind, quantitative_readout) VALUES
  ('INHTILGKLQDVFNLLP [RPN8]', 'protein stability index', 3.17),
  ('AAGKRISHIEKRIESLQ [SMC1]', 'protein stability index', 3.07),
  ('QFCGIKERNSLKKLKAM [BRR2]', 'protein stability index', 3.25),
  ('NFNLKPTKTLTTKERKK [PRP8]', 'protein stability index', 2.54),
  ('VSKPSLLHETNDSFKGL [PRP8]', 'protein stability index', 2.74),
  ('QNPKLFQTIFSKQDLIH [SIN4]', 'protein stability index', 2.02),
  ('FVPVPALSAYHKVQTKL [RPS7B]', 'protein stability index', 2.52),
  ('QVGERIKQTFKNDLFVI [RPO21]', 'protein stability index', 2.36),
  ('IFNSNKAKIIPGNGKHA [SIR4]', 'protein stability index', 3.13),
  ('FVTQFRHLRRTGKVSEF [RET1]', 'protein stability index', 2.5),
  ('IIKYPVAFDNINTHIET [SNF2]', 'protein stability index', 2.71),
  ('QLIKVAVHNGDRKHVAA [RPL9B]', 'protein stability index', 2.48),
  ('NELERNRKIYQFTLYDR [SMC3]', 'protein stability index', 2.45),
  ('VANVKDLETLTMHTKTY [RPL32]', 'protein stability index', 3.01),
  ('TATASLGVIHKGNLLEG [RPN2]', 'protein stability index', 1.84),
  ('PANNHQLGLQTVIRGNS [SMX2]', 'protein stability index', 3.19),
  ('IEKTESVDKKVDSGEER [SWI3]', 'protein stability index', 3.3),
  ('SFFNISPDAPKEIMDKI [SIN4]', 'protein stability index', 3.32),
  ('ISSRTFGQRAVLKFAAH [RPS0A]', 'protein stability index', 2.57),
  ('ELVRLLIIDEIHLLHDD [BRR2]', 'protein stability index', 1.63),
  ('GDYNNTVYSSEQYIQEL [SMC3]', 'protein stability index', 3.2),
  ('FSAPIRPDIVHTVFTSV [RPL4A]', 'protein stability index', 2.07),
  ('RIGVLQARMMQQQSADH [NSL1]', 'protein stability index', 3.06),
  ('TNKSKRPSITEAMMLKE [MED1]', 'protein stability index', 3.03),
  ('LEKGEIELSDGSTFKVN [YJL039C/NUP192]', 'protein stability index', 3.1),
  ('QERKDFLKKVMDTIQDK [ECM29]', 'protein stability index', 3.41),
  ('LQPPKTSSRGRDHKSYS [SMC4]', 'protein stability index', 3.21),
  ('LMEFLCVVSTDSTNLSD [ECM29]', 'protein stability index', 1.65),
  ('QEQVYPDFKPWEHTAAE [SRB8]', 'protein stability index', 2.94),
  ('VNTEKKTIEVTAEINCF [RPN3]', 'protein stability index', 1.35),
  ('YSKIPNILSNKPGQNNR [RRP6]', 'protein stability index', 2.37),
  ('EIRRFQKSTELLIRKLP [HHT1]', 'protein stability index', 2.74),
  ('KLDTEVKNTNANPVVAT [SWP82]', 'protein stability index', 2.38),
  ('AEEQTKLQSQSLHTKNV [YLR018C/POM34]', 'protein stability index', 3.44),
  ('YLLSIWVKKFKWAGIKT [CYT1]', 'protein stability index', 1.57),
  ('EMEVDAEGEEVEVKAEI [RPN1]', 'protein stability index', 3.74),
  ('FTICLNDRNPRLNENKK [CSN12]', 'protein stability index', 3.21),
  ('PKQSDEYLKRVSVPVSG [SIR3]', 'protein stability index', 2.55),
  ('YIEDFLLVIGGNQRKIL [YJR042W/NUP85]', 'protein stability index', 1.86),
  ('VEAGMIALRNGQSSVKH [RPT5]', 'protein stability index', 2.9),
  ('RLANLIDYKLRVLTQDG [SMB1]', 'protein stability index', 2.69),
  ('TPLLENISISTSELGND [BRR2]', 'protein stability index', 2.05),
  ('LKFNHGNYSHLMEKNRI [REC8]', 'protein stability index', 2.47),
  ('RIKEMYWKLWIDEPFNL [FAS1]', 'protein stability index', 3.25),
  ('DSSAHFKGALTIKILPE [YMR129W/POM152]', 'protein stability index', 2.62),
  ('IKSKADAWVSAAHYNRE [PRP8]', 'protein stability index', 1.48),
  ('ATLYIPKALRFDRLVAG [FAS2]', 'protein stability index', 1.23),
  ('GIKVSLLGIFDDIFIPQ [RPC25]', 'protein stability index', 1.73),
  ('TRRFVNVTLVNGKRRMN [RPS30A]', 'protein stability index', 1.51);

---

experiment: protein stability index of a GFP-peptide fusion (yeast GPS) (PSI 1-4); higher = more stable; sorted into four equal gates, so the index is relative within each strain; details: pdr5∆
// reported protein stability index per item
value_kind: protein stability index

INSERT INTO results (sequence_entry, value_kind, quantitative_readout) VALUES
  ('FSSSVSLSYMAFPNASK [RRP40]', 'protein stability index', 1.76),
  ('VQYKLLSISVPSDVNID [SNU114]', 'protein stability index', 2.5),
  ('MSLINDAMVTRTPVIIS [SMD2]', 'protein stability index', 1.7),
  ('KELENNLERLRSDLQSK [YIL149C/MLP2]', 'protein stability index', 3.3),
  ('KEDHPLEFYKDKFFNEV [SIR3]', 'protein stability index', 3.2),
  ('SIDNDFSEEKAEEFDFN [YAR002W/NUP60]', 'protein stability index', 3.02),
  ('QNVTSETHSKKRKKEAN [ITC1]', 'protein stability index', 3.02),
  ('LVSVTSTLQHFQETLDS [MED8]', 'protein stability index', 2.7),
  ('KQLIMESQEKYMEPFDL [NSL1]', 'protein stability index', 3.31),
  ('HLMSWSKTGIIAYSDSQ [SIN4]', 'protein stability index', 1.59),
  ('DRLILDLKLPPMDAYLK [SNU114]', 'protein stability index', 3.34),
  ('QQWGNDFYKRDPRIAPL [FAS2]', 'protein stability index', 2),
  ('MDLLKFSSLAISEINFL [CSI1]', 'protein stability index', 2.49),
  ('NANTIETAKMIENMTKE [FAS2]', 'protein stability index', 3.35),
  ('RQILFKYPMYMQLEEEL [MED6]', 'protein stability index', 2.25),
  ('CRLFFTELASKDNAIYN [YCS4]', 'protein stability index', 1.51),
  ('NRHNLLNDVVSFLFSAI [SWI1]', 'protein stability index', 2.58),
  ('PNRLVKELQYDNEQNLE [PRE2]', 'protein stability index', 2.97),
  ('FKGLETPLKARQREMAE [YLR018C/POM34]', 'protein stability index', 3.29),
  ('ETLGDILKRDFELVSDL [ECM29]', 'protein stability index', 3.39),
  ('YLESLFAKQVDVQLERV [IRR1]', 'protein stability index', 2.19),
  ('KFDSRIRGILMASGSTT [PRP8]', 'protein stability index', 2.18),
  ('TQIANAGASPMVNTQQP [PRE4]', 'protein stability index', 3.07),
  ('RTLTAVHDKILEDLVFP [RPS7A]', 'protein stability index', 3.15),
  ('SRGIVIGSGAMSPLECR [RPP1]', 'protein stability index', 2.34),
  ('IGQIIFSVRTKDSNKDV [RPL10]', 'protein stability index', 2.49),
  ('VLVYDDKLEKVTHDCYR [RPC34]', 'protein stability index', 3.18),
  ('SAASIPPQQTYHFPIFN [RPN4]', 'protein stability index', 2.83),
  ('AKINEVYNNSKDEYLAQ [NSL1]', 'protein stability index', 3.06),
  ('RSNKIKVVKTPGGILRA [RPL34A]', 'protein stability index', 2.12);
